# Tested on: HB3
# procedure details: qHTS profiling for inhibitors of Plasmodium falciparum proliferation (AID 504749); further: nearly all actives have a fitted effect of over 60% in size
# run parameters: P. falciparum in erythrocytes, SYBR Green DNA, 72 h; series mostly up to 28.7 µM
Records with an inconclusive call do not appear. Calls of active or inactive are those of the source. The call rests on the fitted dose curve; in most records, active means well fitted inhibition curve with a large enough effect; inconclusive means small, poorly fitted or top-dose-only effect; inactive means flat fitted curve, though single readings scatter.
Labels: label 1 for active, label 0 for inactive

molecule: Cn1nnc2c(C(N)=O)ncn2c1=O
class name: label 0

molecule: C#CCN[C@@H]1CCc2ccccc21
class name: label 0

molecule: COc1cccc(N(C)C(=S)Oc2ccc3c(c2)CCCC3)n1
class name: label 0

molecule: COc1cc2c(Nc3ccc(Br)cc3F)ncnc2cc1OCC1CCN(C)CC1
class name: label 1

molecule: Cc1nnc(NS(=O)(=O)c2ccc(N)cc2)s1
class name: label 0

molecule: CNS(=O)(=O)Cc1ccc2[nH]cc(CCN(C)C)c2c1
class name: label 0

molecule: CN(C)CCc1c[nH]c2ccc(CS(=O)(=O)N3CCCC3)cc12
class name: label 0

molecule: CCCc1cc(C(N)=S)ccn1
class name: label 0

molecule: CCOCC(O)COc1ccc(NC(=O)CC[S+](C)C)cc1 (stereo not drawn)
class name: label 0

molecule: Oc1c(Cl)cc(Cl)c2cccnc12
class name: label 0

molecule: NCCCC(O)(P(=O)(O)O)P(=O)(O)O
class name: label 0

molecule: CNNCc1ccc(C(=O)NC(C)C)cc1
class name: label 0

molecule: COc1cc(NCc2ccc3nc(N)nc(N)c3c2C)cc(OC)c1OC
class name: label 1

----------
# procedure details: Quantitative High-Throughput drug screen in 47 multiple myeloma cell lines against the NCATS MIPE library collection: KMS34_JCRB cell viability assay (AID 1918985); further: nearly all actives have a fitted effect of over 40% in size
# run parameters: KMS34 myeloma viability, CellTiter-Glo ATP luminescence, 48 h; series mostly up to 45.8 µM
Results filed as inconclusive are left out. Activity calls are given as the source filed them. Calls follow the shape of the dose curve; as a rule, active = well fitted cell-killing curve with a large enough effect; inconclusive = small, poorly fitted or top-dose-only effect, or effect the other way; inactive = no such curve, though single readings can be large or run the other way.
Outcome codes: yes for active, no for inactive

compound: COc1cnc(NS(=O)(=O)c2ccc(N)cc2)nc1
class name: no
//
compound: COC(c1ccccc1)(c1ccccc1)[C@H](Oc1nc(C)cc(C)n1)C(=O)O
class name: no
//
compound: COc1ccc(-c2ccc3cc(C(=O)O)ccc3c2)cc1C12CC3CC(CC(C3)C1)C2
class name: no
//
compound: CCN(CC)CC#CCOC(=O)C(O)(c1ccccc1)C1CCCCC1 (configuration not stated)
class name: no
//
compound: CO[C@@]12[C@H](COC(N)=O)C3=C(C(=O)C(C)=C(N)C3=O)N1C[C@@H]1N[C@@H]12
class name: yes
//
compound: NC(=O)c1ccc2[nH]ccc2c1
class name: no
//
compound: Cc1nnc(C(=O)NC(C)(C)c2nc(C(=O)NCc3ccc(F)cc3)c(O)c(=O)n2C)o1
class name: no
//
compound: CN(CCOc1ccc(CC2SC(=O)NC2=O)cc1)c1ccccn1 (configuration not stated)
class name: no
//
compound: Oc1c(Cl)cc(Cl)c2cccnc12
class name: yes
//
compound: CC(=O)CC(c1ccccc1)c1c(O)c2ccccc2oc1=O (configuration not stated)
class name: no
//
compound: OCc1ccc(-c2nn(Cc3ccccc3)c3ccccc23)o1
class name: no
//
compound: COc1cc2nc(N3CCCN(C)CC3)nc(NC3CCN(Cc4ccccc4)CC3)c2cc1OC
class name: yes
//
compound: Cc1cccc(N(C)C(=S)Oc2ccc3ccccc3c2)c1
class name: no
//
compound: O=S(=O)(O)CCS
class name: no
//
compound: CCN(C)C(=O)Oc1cccc([C@H](C)N(C)C)c1
class name: no
//
compound: C#CCN[C@@H]1CCc2ccccc21
class name: no
//
compound: CC(C)C1CCC(C(=O)N[C@H](Cc2ccccc2)C(=O)O)CC1 (some centres not stated)
class name: no

----------
# System: astro
# procedure details: Drug repurposing screens with cells derived from glioblastoma tumor samples (AID 1345199); further: nearly all actives have a fitted effect of over 40% in size
# run parameters: viability, ATP luminescence, 48 h; series mostly up to 45.9 µM
Inconclusive results are not listed. Active and inactive are the calls of the source. The call rests on the fitted dose curve; in most records, active means well fitted inhibition curve with a large enough effect; inconclusive means small, poorly fitted or top-dose-only effect; inactive means flat fitted curve, though single readings scatter.

smiles structure: CC(C)(C)C(=O)OCOP(=O)(COCCn1cnc2c(N)ncnc21)OCOC(=O)C(C)(C)C
outcome: inactive

smiles structure: CS(=O)(=O)c1ccc([C@@H](O)[C@@H](CO)NC(=O)C(Cl)Cl)cc1
outcome: inactive

smiles structure: CCCc1nc(C)c2c(=O)[nH]c(-c3cc(S(=O)(=O)N4CCN(CC)CC4)ccc3OCC)nn12
outcome: inactive

smiles structure: CCC(=O)O[C@]1(C(=O)CCl)[C@@H](C)C[C@H]2[C@@H]3CCC4=CC(=O)C=C[C@]4(C)[C@@]3(F)[C@@H](O)C[C@@]21C
outcome: inactive

----------
# procedure details: Quantitative High-Throughput drug screen in 47 multiple myeloma cell lines against the NCATS MIPE library collection: Delta47_JCRB cell viability assay (AID 1918925; further: nearly all actives have a fitted effect of over 45% in size)
# run parameters: Delta47 myeloma viability, CellTiter-Glo ATP, 48 h; series mostly up to 45.8 µM
Records with an inconclusive call do not appear. Activity calls are given as the source filed them. Calls follow the shape of the dose curve; as a rule, active = well fitted cell-killing curve with a large enough effect; inconclusive = small, poorly fitted or top-dose-only effect, or effect the other way; inactive = no such curve, though single readings can be large or run the other way.
Outcome codes: active, inactive

smiles structure: CNC(=O)c1cc(Oc2ccc(NC(=O)Nc3ccc(Cl)c(C(F)(F)F)c3)cc2)ccn1
class name: active
//
smiles structure: O=C(O)c1cc(=O)[nH]c(=O)[nH]1
class name: inactive
//
smiles structure: O=C(O)c1cccnc1
class name: inactive
//
smiles structure: COc1cc(NCc2ccc3nc(N)nc(N)c3c2C)cc(OC)c1OC
class name: active
//
smiles structure: NC(=O)c1ccc2[nH]ccc2c1
class name: inactive
//
smiles structure: OCc1ccc(-c2nn(Cc3ccccc3)c3ccccc23)o1
class name: active

----------
# procedure details: Primary redox qHTS assay for identification of artifact compounds. (AID 1845223)
# run parameters: Amplex Red/HRP redox cycling with DTT, fluorescence; series mostly up to 53.8 µM
Records with an inconclusive call do not appear. Activity calls are given as the source filed them. Calls follow the shape of the dose curve; as a rule, active = well fitted activation curve with a large enough effect; inconclusive = small, poorly fitted or top-dose-only effect; inactive = flat fitted curve, though single readings scatter.
Outcome codes: active, inactive

compound: CC(C(=O)O)c1ccc2c(c1)CC(=O)c1ccccc1S2 (configuration not stated)
class name: inactive
--
compound: CC[C@H](C)C(=O)O[C@H]1C[C@@H](C)C=C2C=C[C@H](C)[C@H](CC[C@@H]3C[C@@H](O)CC(=O)O3)[C@H]21
class name: inactive
--
compound: CCCCc1oc2ccc(NS(C)(=O)=O)cc2c1C(=O)c1ccc(OCCCN(CCCC)CCCC)cc1
class name: inactive
--
compound: CNC(=O)c1cc(Oc2ccc(NC(=O)Nc3ccc(Cl)c(C(F)(F)F)c3)cc2)ccn1
class name: inactive
--
compound: Nc1nc(F)nc2c1ncn2[C@@H]1O[C@H](CO)[C@@H](O)[C@@H]1O
class name: inactive
--
compound: CC1=NN(c2ccccc2)C(=O)C1
class name: active
--
compound: Cc1onc(-c2ccccc2Cl)c1C(=O)N[C@@H]1C(=O)N2[C@@H]1SC(C)(C)[C@@H]2C(=O)O
class name: inactive

----------
# procedure details: qHTS of pediatric cancer cell lines to identify multiple opportunities for drug repurposing: Confirmatory screen for NB1643 cells (AID 1347109); further: nearly all actives have a fitted effect of over 45% in size; further: potency means the concentration at half of the fitted maximal effect
# run parameters: NB1643 neuroblastoma cell viability; series mostly up to 45.9 µM
Records with an inconclusive call do not appear. Activity calls are given as the source filed them. Calls come from the whole dose curve; as a rule, active = well fitted cell-killing curve with a large enough effect; inconclusive = small, poorly fitted or top-dose-only effect, or effect the other way; inactive = no such curve, though single readings can be large or run the other way.
quantity kind: Potency

compound: Nc1nc(N)c2nc(CNc3ccc(C(=O)NC(CCC(=O)O)C(=O)O)cc3)cnc2n1 (stereo not given)
quantity kind: Potency
meas value: inactive

compound: Cn1nnc2c(C(N)=O)ncn2c1=O
quantity kind: Potency
meas value: inactive

compound: COc1ccc(C(=O)CC(=O)c2ccc(C(C)(C)C)cc2)cc1
quantity kind: Potency
meas value: inactive

compound: Nc1nc(F)nc2c1ncn2[C@@H]1O[C@H](CO)[C@@H](O)[C@@H]1O
quantity kind: Potency
meas value: 0.465 µM (active)

compound: CC(C)(C)C(=O)OCOP(=O)(COCCn1cnc2c(N)ncnc21)OCOC(=O)C(C)(C)C
quantity kind: Potency
meas value: 8.27 µM (active)

----------
# procedure details: qHTS Screen of the MIPE 4.0 Collection Against Ewings Sarcoma (TC32) (AID 1259256); further: nearly all actives have a fitted effect of over 45% in size; further: potency means the concentration at half of the fitted maximal effect
# run parameters: TC32 Ewing sarcoma viability, CellTiter-Glo, 48 h; series mostly up to 45.8 µM
Records with an inconclusive call do not appear. The source made the active and inactive calls. Calls follow the shape of the dose curve; as a rule, active = well fitted inhibition curve with a large enough effect; inconclusive = small, poorly fitted or top-dose-only effect; inactive = no such curve, though single readings can be large or run the other way.
quantity kind: Potency

compound: N[C@@H](C(=O)N[C@@H]1C(=O)N2C(C(=O)O)=C(Cl)CS[C@H]12)c1ccccc1
quantity kind: Potency
meas value: inactive
//
compound: C[C@@H]1C[C@H]2[C@@H]3CCC4=CC(=O)C=C[C@]4(C)[C@@]3(Cl)[C@@H](O)C[C@]2(C)[C@@]1(OC(=O)c1ccco1)C(=O)CCl
quantity kind: Potency
meas value: 11.8 µM (active)
//
compound: O[C@@H](CNC[C@H](O)[C@H]1CCc2cc(F)ccc2O1)[C@@H]1CCc2cc(F)ccc2O1
quantity kind: Potency
meas value: 23.5 µM (active)
//
compound: CC1=C(C(=O)O)N2C(=O)[C@@H](NC(=O)C(N)c3ccccc3)[C@H]2SC1 (stereo partly specified)
quantity kind: Potency
meas value: inactive
//
compound: CC(=O)CC(c1ccccc1)c1c(O)c2ccccc2oc1=O (stereo unspecified)
quantity kind: Potency
meas value: inactive
//
compound: O=C(O)C1CCCN(CCC=C(c2ccccc2)c2ccccc2)C1 (stereo unspecified)
quantity kind: Potency
meas value: 9.35 µM (active)
//
compound: Cc1ncc([N+](=O)[O-])n1CCO
quantity kind: Potency
meas value: inactive
//
compound: COc1nc(N)nc2c1ncn2[C@@H]1O[C@H](CO)[C@@H](O)[C@@H]1O
quantity kind: Potency
meas value: inactive
//
compound: CCCc1cc(C(N)=S)ccn1
quantity kind: Potency
meas value: inactive
//
compound: CCCCS(=N)(=O)CCC(N)C(=O)O (stereo unspecified)
quantity kind: Potency
meas value: inactive
//
compound: CCCc1nc(C)c2c(=O)[nH]c(-c3cc(S(=O)(=O)N4CCN(CC)CC4)ccc3OCC)nn12
quantity kind: Potency
meas value: 9.35 µM (active)
//
compound: COc1c(N2CCNC(C)C2)c(F)cc2c(=O)c(C(=O)O)cn(C3CC3)c12 (stereo unspecified)
quantity kind: Potency
meas value: inactive
//
compound: COC(=O)Nc1nc2ccc(Sc3ccccc3)cc2[nH]1
quantity kind: Potency
meas value: 1.18 µM (active)
//
compound: CC1CC2C3CCC4=CC(=O)C=C[C@]4(C)[C@@]3(F)[C@@H](O)C[C@]2(C)[C@@]1(O)C(=O)CO (stereo partly specified)
quantity kind: Potency
meas value: inactive
//
compound: CC[C@H](NC(C)C)[C@H](O)c1ccc(O)c2[nH]c(=O)ccc12
quantity kind: Potency
meas value: inactive
//
compound: CCN(C)C(=O)Oc1cccc([C@H](C)N(C)C)c1
quantity kind: Potency
meas value: inactive
//
compound: NC(=O)c1ccc2[nH]ccc2c1
quantity kind: Potency
meas value: inactive
//
compound: CCOC(=O)c1ccc(C#Cc2ccc3c(c2)C(C)(C)CCS3)nc1
quantity kind: Potency
meas value: inactive
//
compound: CC(=O)Oc1ccccc1C(=O)Nc1ncc([N+](=O)[O-])s1
quantity kind: Potency
meas value: 21.5 µM (active)
//
compound: O=c1oc2c(O)c(O)cc3c(=O)oc4c(O)c(O)cc1c4c23
quantity kind: Potency
meas value: inactive
//
compound: COc1cc2nc(N3CCCN(C)CC3)nc(NC3CCN(Cc4ccccc4)CC3)c2cc1OC
quantity kind: Potency
meas value: 5.26 µM (active)
